# target-entity: T1, SNTB1, Q13884
# T1 sequence (Q13884 107-205, limits assumed, looked up): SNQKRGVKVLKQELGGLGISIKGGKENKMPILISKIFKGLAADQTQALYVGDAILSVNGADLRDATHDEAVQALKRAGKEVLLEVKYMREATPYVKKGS
# experiment: holdup assay
# Set-up: key: below the threshold = too weak to quantify, mostly under pKd 3.1 to 4
# condition-info: plain residues with an end cap or a label only (N-terminal biotin on a linker: ttds)
reported-property: pKd

binder: GRLLGLETNV [ARHGEF26, Q96DR7]
recorded-result: 4.79
//
binder: SSIDLWETAL [SLC15A5, A6NIM6]
recorded-result: 5.41
//
binder: PSRDRKETSI [RALBP1, Q15311]
recorded-result: 3.97
